B1: Max-interacting protein 1, residues 70 to 120; numbered along this chain, P50539 (parent)
chain: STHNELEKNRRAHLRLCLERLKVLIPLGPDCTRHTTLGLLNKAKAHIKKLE

Variants of: B1
Experiment: abundance fitness (aPCA) (normalised: wild type 0, dead -1); higher = more abundant; growth selection in yeast, the domain comes from the species named
Details: Homo sapiens
OBSERVABLE: abundance fitness
Hey, just send me the number, nothing else.

Fill blank: measured abundance fitness of the variant R10S is ____.
-0.217

Then what about the variant H46E ?
-0.527

Then what about the variant K8I ?
-0.536

Then what about the variant N4A ?
-0.258

Then what about the variant K48M ?
-0.65

Then what about the variant L40C ?
-0.926

Then what about the variant L40K ?
-0.793

Then what about the variant T35Q ?
-0.176

Then what about the variant E7M ?
-0.173

Then what about the variant V23F ?
-0.191
